target: BACE 1 (Homo sapiens (Human))
Sequence (P56817 46-501, species assumed): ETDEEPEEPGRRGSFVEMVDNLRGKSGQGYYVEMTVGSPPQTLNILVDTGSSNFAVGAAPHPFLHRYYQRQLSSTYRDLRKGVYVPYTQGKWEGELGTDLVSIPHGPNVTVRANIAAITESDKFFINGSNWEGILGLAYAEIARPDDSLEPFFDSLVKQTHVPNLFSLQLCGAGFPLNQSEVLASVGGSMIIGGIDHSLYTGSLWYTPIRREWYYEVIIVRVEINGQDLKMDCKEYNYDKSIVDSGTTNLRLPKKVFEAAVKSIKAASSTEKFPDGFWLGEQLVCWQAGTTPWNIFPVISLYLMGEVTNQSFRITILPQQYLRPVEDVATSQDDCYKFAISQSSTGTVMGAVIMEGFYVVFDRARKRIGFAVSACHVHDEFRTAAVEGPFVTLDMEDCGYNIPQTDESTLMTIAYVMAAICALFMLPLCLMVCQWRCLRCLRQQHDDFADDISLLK
Measured IC50, listed per entry.
PROPERTY LABEL: IC50 (nM)

• CC(C)(C)COc1cc(F)c2c(c1)[C@]1(COCCC(N)=N1)c1cc(-c3cccnc3F)ccc1O2 = 0.5
• NC1=NC2(COCC1)c1cc(-c3cccnc3F)ccc1Oc1cnc(-c3ccnc(F)c3)cc12 (racemic) = 1
• NC1=N[C@@]2(COCC1)c1cc(-c3cccnc3F)ccc1Oc1cnc(-c3ccnc(F)c3)cc12 = 0.5
